# system_name: truncated form of human Choline kinase α1 that includes residues 75-457 (Homo sapiens, UniProt P35790)
# Construct: made in house
# Sequence (P35790 75-457): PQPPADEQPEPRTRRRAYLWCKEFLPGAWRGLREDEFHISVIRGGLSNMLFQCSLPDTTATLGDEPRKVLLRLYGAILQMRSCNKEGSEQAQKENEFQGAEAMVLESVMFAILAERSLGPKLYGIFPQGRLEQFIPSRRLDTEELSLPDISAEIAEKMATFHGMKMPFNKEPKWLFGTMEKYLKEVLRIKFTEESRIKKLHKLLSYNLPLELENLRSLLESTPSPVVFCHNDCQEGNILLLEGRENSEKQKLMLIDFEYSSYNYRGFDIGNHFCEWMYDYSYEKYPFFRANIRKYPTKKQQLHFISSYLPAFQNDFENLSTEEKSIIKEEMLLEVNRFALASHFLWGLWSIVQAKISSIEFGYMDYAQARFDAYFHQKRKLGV
# experimental_details: Kinase Assay, coupled (ATP regeneration) LDH/PK assay, NADH absorbance
# Assay type: biochemical
# test_parameters: Examples not designated with an asterisk; footnote prints version 1 of the Kinase Assay; read-out: IC50

{"compound": "COC(=O)c1ccc(-c2ccc(CN3CCCN(C)CC3)cc2C#N)c(Br)c1 [Example 156]", "IC50": "< 2000 nM"}
{"compound": "CN1CCCN(Cc2ccc(-c3ccc(CN4CCN(CCO)CC4)cc3)c(C#N)c2)CC1 [Example 6]", "IC50": "< 200 nM"}
{"compound": "CN1CCCN(Cc2ccc(-c3ccc(CN)cc3)c(C#N)c2)CC1 [Example 16]", "IC50": "< 200 nM"}
{"compound": "CN1CCCN(Cc2ccc(-c3ccc(CN(C)CCO)cc3)c(C#N)c2)CC1 [Example 8]", "IC50": "< 100 nM"}
{"compound": "CN1CCCN(Cc2ccc(-c3cn[nH]c3)c(C#N)c2)CC1 [Example 112]", "IC50": "< 500 nM"}
{"compound": "CN1CCCN(Cc2ccc(-c3ccc(CN4CCCN(C)CC4)cc3CN)cc2)CC1 [Example 52]", "IC50": "< 500 nM"}
{"compound": "CN1CCCN(Cc2ccc(-c3ccc(C(=O)N4CCC(N5CCOCC5)CC4)cc3)cc2)CC1 [Example 39]", "IC50": "< 50000 nM"}
{"compound": "CN1CCCN(Cc2ccc(-c3ccc(C(=O)N4CCCN(C)CC4)cc3)c(F)c2)CC1 [Example 58]", "IC50": "< 500 nM"}
{"compound": "CN1CCCN(Cc2ccc(-c3ccc(CN4CCCCC4)cc3)c(C#N)c2)CC1 [Example 13]", "IC50": "< 2000 nM"}

---

# system_name: ChoKα protein (Homo sapiens, UniProt P35790)
# Construct: made in house
# experimental_details: Binding affinity by surface plasmon resonance (SensiQ Pioneer, FastStep)
# test_parameters: SPR, 1:1 binding model, upper concentration 500 nM; read-out: Kd

{"smiles": "CN1CCCN(Cc2ccc(-c3ccc(S(=O)(=O)NCCO)cc3)c(C#N)c2)CC1", "system_name": "ChoKα protein (Homo sapiens, UniProt P35790)", "Kd": "< 100 nM"}
{"smiles": "CN(C)CCCNC(=O)c1ccc(-c2ccc(CN3CCCN(C)CC3)cc2C#N)cc1", "system_name": "ChoKα protein (Homo sapiens, UniProt P35790)", "Kd": "< 50 nM"}
{"smiles": "CN1CCCN(Cc2ccc(-c3ccc(C(=O)N4CCCN(C)CC4)cc3-c3ccncc3)c(C#N)c2)CC1", "system_name": "ChoKα protein (Homo sapiens, UniProt P35790)", "Kd": "< 200 nM"}
{"smiles": "CN1CCCN(Cc2ccc(-c3ccc(CC#N)cc3)c(C#N)c2)CC1", "system_name": "ChoKα protein (Homo sapiens, UniProt P35790)", "Kd": "< 60000 nM"}
{"smiles": "CN1CCCN(Cc2ccc(-c3ccc(S(=O)(=O)N4CCOCC4)cc3)c(C#N)c2)CC1", "system_name": "ChoKα protein (Homo sapiens, UniProt P35790)", "Kd": "< 200 nM"}
{"smiles": "CN1CCCN(Cc2ccc(-c3ccc(CN4CCN(CCO)CC4)cc3)c(C#N)c2)CC1", "system_name": "ChoKα protein (Homo sapiens, UniProt P35790)", "Kd": "< 100 nM"}
{"smiles": "CN1CCCN(Cc2ccc(-c3ccc(CN4CCCN(C)CC4)cc3[N+](=O)[O-])cc2)CC1", "system_name": "ChoKα protein (Homo sapiens, UniProt P35790)", "Kd": "< 100 nM"}
{"smiles": "Cc1cc(C(=O)N2CCCN(C)CC2)ccc1-c1ccc(CN2CCCN(C)CC2)cc1", "system_name": "ChoKα protein (Homo sapiens, UniProt P35790)", "Kd": "< 60000 nM"}

---

# system_name: truncated form of human Choline kinase α1 that includes residues 75-457 (Homo sapiens)
# Construct: made in house
# experimental_details: Kinase Assay, coupled (ATP regeneration) LDH/PK assay, NADH absorbance
# Format: biochemical
# test_parameters: Examples not designated with an asterisk; footnote prints version 1 of the Kinase Assay; read-out: IC50
pIC50: −log10 of the molar value.
Below, each of the compounds is paired with its reported pIC50 value.
property_name: pIC50

{"compound": "CN1CCCN(Cc2ccc(-c3ccc(C(=O)N4CCCN(C)CC4)cc3-c3ccc(CN4CCOCC4)cc3)c(C#N)c2)CC1", "value_measured": "> 7.00"}
{"compound": "CN1CCCN(Cc2ccc(-c3ccc(C(=O)N4CCC(O)CC4)cc3)c(C#N)c2)CC1", "value_measured": "> 6.30"}
{"compound": "CN1CCCN(Cc2ccc(-c3ccc(CN4CCCN(C)CC4)cc3CNC=O)cc2)CC1", "value_measured": "> 6.30"}
{"compound": "CN1CCCN(Cc2ccc(-c3ccc(C(F)(F)F)cc3CO)cc2)CC1", "value_measured": "> 4.30"}
{"compound": "CN1CCCN(Cc2ccc(-c3ccc(C(=O)N4CCCN(C)CC4)cc3-c3cc(F)cc(F)c3)c(C#N)c2)CC1", "value_measured": "> 7.00"}
{"compound": "Cc1cc(CN2CCCN(C)CC2)ccc1-c1ccc(CN2CCCN(C)CC2)cc1", "value_measured": "> 6.30"}
{"compound": "CN1CCCN(Cc2ccc(-c3ccc(N)nc3)c(C#N)c2)CC1", "value_measured": "> 6.30"}
{"compound": "CC(=O)NCCc1ccc(-c2ccc(CN3CCCN(C)CC3)cc2C#N)cc1", "value_measured": "> 6.30"}
{"compound": "CN1CCCN(Cc2ccc(-c3ccc([N+](=O)[O-])cc3)c(C#N)c2)CC1", "value_measured": "> 6.30"}
{"compound": "CNC(=O)Nc1ccc(-c2ccc(CN3CCCN(C)CC3)cc2C#N)cc1", "value_measured": "> 7.00"}
{"compound": "CN1CCCN(Cc2ccc(-c3ccc(C(=O)N4CCCC(O)C4)cc3)c(C#N)c2)CC1 (stereo not shown)", "value_measured": "> 6.30"}
{"compound": "CNS(=O)(=O)c1ccc(-c2ccc(CN3CCCN(C)CC3)cc2C#N)cc1", "value_measured": "> 7.00"}
{"compound": "CN1CCCN(Cc2ccc(-c3cncc(N)c3)c(C#N)c2)CC1", "value_measured": "> 4.30"}
{"compound": "CN1CCCN(Cc2ccc(-c3ccc(C4(NS(C)(=O)=O)CC4)cc3)c(C#N)c2)CC1", "value_measured": "> 7.00"}
{"compound": "Cc1cc(-c2ccc(CN3CCCN(C)CC3)cc2)ccc1CN1CCCN(C)CC1", "value_measured": "> 6.30"}
{"compound": "CCOc1ccc(-c2cc(C(=O)N3CCCN(C)CC3)ccc2-c2ccc(CN3CCCN(C)CC3)cc2C#N)cc1", "value_measured": "> 7.00"}
{"compound": "CN1CCCN(Cc2ccc(-c3ccc(CNCCNC(=O)OC(C)(C)C)cc3)c(C#N)c2)CC1", "value_measured": "> 6.30"}
{"compound": "CN1CCCN(Cc2ccc(-c3ccc(C(=O)O)cc3Br)c(C#N)c2)CC1", "value_measured": "> 4.30"}
{"compound": "CN1CCCN(Cc2ccc(-c3ccc(C(=O)N4CCCN(C)CC4)cc3-c3ccc(O)cc3)c(C#N)c2)CC1", "value_measured": "> 7.00"}
{"compound": "CN1CCCN(Cc2ccc(-c3ccc(C(=O)N4CCCN(C)CC4)cc3N(C)C)c(C#N)c2)CC1", "value_measured": "> 6.30"}
{"compound": "CN1CCCN(Cc2ccc(-c3ccc(CN4CCCC(O)C4)cc3)c(C#N)c2)CC1 (stereo not shown)", "value_measured": "> 7.00"}
{"compound": "CN1CCCN(Cc2ccc(-c3ccc(NC(N)=O)cc3)c(C#N)c2)CC1", "value_measured": "> 6.70"}
{"compound": "Cc1ccc(-c2cc(C(=O)N3CCCN(C)CC3)ccc2-c2ccc(CN3CCCN(C)CC3)cc2C#N)cc1", "value_measured": "> 6.30"}
{"compound": "CN1CCCN(Cc2ccc(-c3ccc(CC(=O)O)cc3)c(C#N)c2)CC1", "value_measured": "> 4.30"}
{"compound": "CN(C)Cc1ccc(-c2ccc(CN3CCCN(C)CC3)cc2C#N)cc1", "value_measured": "> 6.30"}
{"compound": "CN1CCCN(Cc2ccc(-c3ccc(C(=O)N4CCCN(C)CC4)cc3-c3ccc(S(C)(=O)=O)cc3)c(C#N)c2)CC1", "value_measured": "> 6.30"}
{"compound": "CN1CCCN(Cc2ccc(-c3ccc4ccccc4c3)c(C#N)c2)CC1", "value_measured": "> 4.30"}
{"compound": "Cc1cc(C#N)ccc1-c1ccc(CN2CCCN(C)CC2)cc1C#N", "value_measured": "> 5.70"}
{"compound": "CN1CCCN(Cc2ccc(-c3ccc(-c4nnn[nH]4)cc3)cc2)CC1", "value_measured": "> 4.30"}
{"compound": "CC(=O)N1CCN(C(=O)c2ccc(-c3ccc(CN4CCCN(C)CC4)cc3)cc2)CC1", "value_measured": "> 4.30"}
{"compound": "CON(C)C(=O)c1ccc(-c2ccc(CN3CCCN(C)CC3)cc2C#N)cc1", "value_measured": "> 6.30"}
{"compound": "CN1CCCN(Cc2ccc(-c3ccc(C(=O)N(C)C)cc3)c(C#N)c2)CC1", "value_measured": "> 4.30"}
{"compound": "CN1CCCN(Cc2ccc(-c3ccc(C(=O)N4CCCN(C)CC4)cc3C#N)c(C#N)c2)CC1", "value_measured": "> 6.70"}
{"compound": "CN1CCCN(Cc2ccc(-c3ccc(C(=O)N4CCC(CO)C4)cc3)c(C#N)c2)CC1 (stereo not shown)", "value_measured": "> 6.70"}

The measured values listed here are drawn from patent US9834521B2.
